Data provenance: patent EP4722217A1

# Tested on: pERK in KRAS G12D mutant cell line AGS
# assayComment: Inhibitory effect on intracellular pERK by In-Cell Western Assay (384-well)
# Format: cell-based
# measurementContext: Homo sapiens; pERK inhibition, AGS cells, 3 h incubation; read-out: AGS, IC50 (nM) KRAS p.G12D

compound	IC50 / nM
C#Cc1c(F)ccc2cc(O)cc(-c3nc(C#CC)c4c(N5CC6CCC(C5)N6)nc(OCC56CC(=C)CN5CC(=C)C6)nc4c3F)c12 [Example 2]	0.4
